# ASSAY NAME: yeast display, Sf9 membrane polyspecificity reagent, FACS + sequencing; frameworks hold sequencing errors
PROPERTY: polyreactivity (PSR sort gate)

Look over these answered cases.
QVHLVESGGGLVQAGGSLRLSCAASGRIFYGYVMGWYRQAPGTEREFVAAITWSAGSTYYADSVKGRFTISRDNAKNTVYLQMNSLKPEDTALYYCADGGGHYQEYLMEDYWGQGTQVTVSS :: high polyreactivity
QVQLVESGGGLVQAGCSLRLSCAASGRTFSKYTMGWYRQAPGKERELVAAISGSGGSTYYADSVKGRFTISRDNAKNTVYLQMNSLKPEDTAVYYCAAEDEYNWYDDYFYTFDYWGQGTQVTVSS :: low polyreactivity
QVQLVESGGGLVQAGGSLRISCAASGSLFYRYAMGWYRQAPGKEREMVAAINDSGGGTYYADSVKGRFTISRDKAKNTVYLQMNSLKPEDTAVYYCAAATHNKHTARDDYWGQGTQVNVSS :: low polyreactivity
QVQLVESGGGLVHAGGSLRLSCSASRFIFDKNSMGWYIQAPGKERELVAAISYGDGRTYYADSVKGRFTISRDNAKNTVYLHMNSLKPEDTEVYYCNTDAKRYIRIYWGQGTQVTVSS :: high polyreactivity
QVQLVESGGGLVPAGGSLRLSCAASGFTLYRYVMGWYRQAPGKERELVAAITRGGNTNYADSVKGRFTISRDNAKKTVYLQKNSLKPEDTAVYDCARRYRDYGRYGYWGQGTQVTVSS :: high polyreactivity
QVQLVESGGGLVQAGGSLRLSSAASGSTFSYYAMGWYRQAPGKDRELVAAITSSGGSTYYADSVKGRFTISRDNAKNTVYLEMNSLKPEDTEVYYCNTAYHVPYDYWGQGTQVTVSS :: low polyreactivity
QVQLVESGGGVVQAGGSLRLSCAASGLTFKFYAMGWYIQAPGKERELVAAINRSGSSTYYADSVKGRFTISRDNAKNTVYLQMNSLKPEDTAVYYCAKDSFTSTRQYDYWGQGTQVTVSS :: low polyreactivity
QVQLVESGGGLVQAGGSLRLSCAASGFTFVRNVMGWYRQAPGKERELVAAINTGGTTDYADSVKGRFTISRDNAKNTVYLQMNSLKPEDTAVYYCNADYDSQYHYLLRYDYWGQGTQVTVSS :: low polyreactivity
QFQLVESGGGLVQAGGSLRLSCAASGRTFYQYTMGWYRQAPGKERELVAAITTSTGNTYYADSVKGRFTISRDNAKNTVYLQLNSLKPEDTAVYYCAAEPPTYKLLDYWGQGTQVTVSS :: low polyreactivity
QVQLVESGGGLVQAGGSLRLSCAASGSIFKRYAMGWYRQAPGKERELVARISRRGGTYYADSVKGRFTISRDNAKNTVYLQMNSLKPEDTAVYYCNANVIFADNNDRDYWGQGTQVTVSS :: low polyreactivity

Consider the sequence shown here: QVQLVESGVGLVPAGGSLRLSCAASGSTFSANAMGWYRQAPGKERELVAAITYRGANTYYADSVKGRFTISRDNAKNTVYLQLNSLKPEDTAVYYCAAEYAYHHVGFGYWGQGTQVTVSS What is its recorded polyreactivity (PSR sort gate)?
low polyreactivity

Consider the sequence shown here: QVQLVESGGGLVQAGGSLRLSCAASGSTFGYYAMGWYRQAPGKERELVATINRSGGSTYYADSVKGRFSISRDNAKNTVYLQMNSLKPEDTAVYYCNKLAYAGFGYIGSGYWGQGTQVTVSS What is its recorded polyreactivity (PSR sort gate)?
low polyreactivity

Consider the sequence shown here: QVQLLESGGGLVQAGGSLRLTSPASVRISQIYAMGWYIQAPGTERVLVARITSTDSTYYADSVKGRFTISRDNAKNTVYLQMNSLKPEDTAVYYCAASWWSPYDYWGQGTQVTVSS What is its recorded polyreactivity (PSR sort gate)?
low polyreactivity

Consider the sequence shown here: QVQLVESGGGLVQAGGSLRLSCAASGRTFVYNAMGWYRQAPGKERELVAAISSDGASTYYADSVKGRFTISRDNAKNTVYLQMNSLKPEDTAVYYCAADFSYYSYEHYYWVQGTQVTVSS What is its recorded polyreactivity (PSR sort gate)?
low polyreactivity

Consider the sequence shown here: QVQLVESGGGLVQAGGSLRLSCAASGRTYRSYTMGWYRQAPGKERELVASISRRGGSTYYADSVKGRFTISRDNAKNTVYLQMNSLKPEDTAVYYCAAVNVYDAYEYWGQGTQVTVSS What is its recorded polyreactivity (PSR sort gate)?
high polyreactivity

Consider the sequence shown here: QVQLVESGGGLVQAGGSLRLSCAASGNTLQVYAMGGYRPAPGKERELVARLTGGGRTSYADSVKGRFTISRDNAKTTVYLQMHSLKPEDTAVYYCATVYYGHIVLYDYWGQGTQVTVSA What is its recorded polyreactivity (PSR sort gate)?
low polyreactivity

Consider the sequence shown here: QGQLVESGGGLVQAGGSLRLSCAASGSTLVKYAMGTNRQAPGKERELVAAISWSGGRTDYADSVKGRFTSSRDNAKNTVYLQMNSLKPEDTAVYYCAARSTRFYTPGYYYWGQGTQVTVSS What is its recorded polyreactivity (PSR sort gate)?
high polyreactivity

Consider the sequence shown here: QVQLVESGGGLVQAGGSLRLSCAASGITLFGYAMGWYRQAPGKERELVAAITSGGSTYYADSVKGRFTISRDNAKNTVYLQMNSLKPEDTAVYYCATSYVYYKYYSQEIYVYGFEYWGQGTQVTVSS What is its recorded polyreactivity (PSR sort gate)?
high polyreactivity

Consider the sequence shown here: QVQLVESGGGLVQAGGSLRLSCAASGRTFSIYAMGWYRQAPGKERELVAAISNGGRTKYADSVKGRFTISRDNAKNTVYLQMNSLKPEDTAVYYCNALAYNVPRYDYWGQGTQVTVSS What is its recorded polyreactivity (PSR sort gate)?
high polyreactivity

Consider the sequence shown here: QVQLVESGGGLVQAGGSLRLSCAASGSTFGYNAMGWYRPAPGKERELVAAISWNGGSTYYADSVKGRFTISRDNAKTTVYLQMNSLKPEDTAVYYCAAEHRGYFTRYDYWGQGTQVTVSS What is its recorded polyreactivity (PSR sort gate)?
low polyreactivity

Consider the sequence shown here: QVQLVESGGGLVQAGGSLRLSCAASGRTFHYYAMGWYRQAPGKERELVAAISVSGGSTYYADSVKGRFTISRDNAKNTVYLQMNSLKPEDTAVYYCAADDYLVEHDYWGQGTQVTVSS What is its recorded polyreactivity (PSR sort gate)?
low polyreactivity
